Target: T1, human mutCALR on BaF3 cells stably expressing human MPL and human mutCALR (MPL-mutCALR cells) (human)
T1 construct: also called mutant calreticulin
T1 chain: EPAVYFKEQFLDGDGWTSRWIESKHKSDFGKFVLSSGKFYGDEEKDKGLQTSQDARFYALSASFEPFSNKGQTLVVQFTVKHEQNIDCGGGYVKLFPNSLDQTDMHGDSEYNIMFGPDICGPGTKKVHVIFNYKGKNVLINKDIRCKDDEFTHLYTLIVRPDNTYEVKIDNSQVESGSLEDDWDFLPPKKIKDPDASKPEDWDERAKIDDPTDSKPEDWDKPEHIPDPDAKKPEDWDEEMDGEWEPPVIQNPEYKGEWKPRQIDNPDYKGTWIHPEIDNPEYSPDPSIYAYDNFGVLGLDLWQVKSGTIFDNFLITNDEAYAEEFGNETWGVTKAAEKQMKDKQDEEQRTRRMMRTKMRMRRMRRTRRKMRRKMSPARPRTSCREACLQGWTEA
Assay: flow cytometry, BaF3 MPL-mutCALR cells
Recorded MPL-mutCALR AUC, one value per entry.
Form rule: numeric answer, no unit written next to it.

[[record]]
binder = "anti-mutCALR antibody clone 48 (antibody, human IgG1, lambda, V domains shown, human IgG1) VH: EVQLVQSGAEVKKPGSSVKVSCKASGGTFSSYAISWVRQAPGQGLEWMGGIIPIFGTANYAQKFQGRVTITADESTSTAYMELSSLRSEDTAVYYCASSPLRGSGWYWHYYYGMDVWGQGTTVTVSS VL: SYVLTQPPSVSVAPGKTARITCGGNNIGSKSVHWYQQKPGQAPVLVIYQDRKRPSGIPERFSGSNSGNTATLTISGTQAMDEADYYCQAWDSSTAVFGGGTKLTVLG"
metric = "MPL-mutCALR AUC"
endpoint_value = 30300

[[record]]
binder = "anti-mutCALR antibody clone 25 (antibody, human IgG1, lambda, V domains shown, human IgG1) VH: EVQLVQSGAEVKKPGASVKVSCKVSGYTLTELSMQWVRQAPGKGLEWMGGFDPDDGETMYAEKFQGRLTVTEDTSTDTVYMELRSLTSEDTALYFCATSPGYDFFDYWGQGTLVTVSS VL: SYELTQPPSVAVAPGQTARITCGGNNIGRKAVHWYQQKPGQAPVLVVYDDSDRPSGIPERFSGSNSGNTATLTINRVEAGDEADYYCQVWDSSNDLLIFGGGTKLTVLG"
metric = "MPL-mutCALR AUC"
endpoint_value = 65200


Moving on to another binder below.
The recorded MPL-mutCALR AUC for anti-mutCALR antibody clone 8 (antibody, human IgG1, lambda, V domains shown, human IgG1) VH: QVQLVQSGAEVKKPGSSVKVSCKVSGYTLTELSMQWVRQAPGKGLEWMGGFDPDDGETMYAEKFQGRLTVTEDTSTDTVYMELRSLTSEDTALYFCATSPGYDFFDYWGQGTLVTVSS VL: SYELTQPPSVSVAPGQTARITCGGNNIGSKSVHWYQQKPGQAPVLVVYDDSDRPSGIPERFSGSNSGRTATLTISRVEAGDEADYHCQVWDSSSDHLVFGGGTKLTVLG is 67400
